Source listed as paper PMC11078990.

# measured.on: L1 EN (LINE-1 retrotransposon endonuclease domain) (Homo sapiens, UniProt O00370, N5T)
# Sequence (O00370 1-239 N5T): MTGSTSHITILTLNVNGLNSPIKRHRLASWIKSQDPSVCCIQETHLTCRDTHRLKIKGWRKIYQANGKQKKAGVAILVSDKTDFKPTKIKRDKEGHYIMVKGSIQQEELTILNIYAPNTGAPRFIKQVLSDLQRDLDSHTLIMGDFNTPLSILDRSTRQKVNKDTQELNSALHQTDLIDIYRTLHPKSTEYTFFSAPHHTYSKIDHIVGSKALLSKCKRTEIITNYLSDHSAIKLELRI
# experiment.description: Fluorescent oligonucleotide EN nicking activity assay
# Type: biochemical
# settings: [Inhibitor] 5 μM; technical replicates 1-3, Fig. 2b source data; read-out: EN activity, percent of no inhibitor control
Lab note - cut at 80% for remaining activity at 5 µM: met if strictly below, not met if not.

Consider the following illustrative entries.
COc1ccc(OC)c(NS(=O)(=O)c2ccc(NS(=O)(=O)c3cccc([N+](=O)[O-])c3)cc2)c1 [AD36]; not met
O=C(Nc1ccc(S(=O)(=O)NCc2ccco2)cc1)c1cc(NS(=O)(=O)c2cccs2)cc(NS(=O)(=O)c2cccs2)c1 [AD18]; not met
Nn1cnn2c(SCC(=O)Cc3ccc(-c4nc5cc(NC(=O)CSc6nnc7n(N)cnn67)ccc5o4)cc3)nnc12 [AD16]; met

Now for another entry.
Record Cc1ccc(NC(=O)CSc2nc(-c3ccccc3F)nc3c2Cc2c(CO)cnc(C)c2O3)cc1 [AD28] : is its remaining activity at 5 µM strictly below 80%?
not met

====

# measured.on: APE1 (Homo sapiens, UniProt P27695)
# Construct: purchased New England Biolabs (NEB) M0282S
# experiment.description: APE1 fluorescent oligonucleotide activity assay (abasic site substrate)
# Type: biochemical
// Percent APE1 activity, average lookup, one value per entry
Respond with the bare value in %.

C/C(C[C@H](c1ccccc1)c1c(O)c2ccccc2oc1=O)=N\Nc1ccc([N+](=O)[O-])cc1[N+](=O)[O-]; 95.58
O=C(NCCCCCCNC(=O)Nc1cccc([N+](=O)[O-])c1)Nc1cccc([N+](=O)[O-])c1; 120.4

Which Percent APE1 activity, average is reported with APE1 (Homo sapiens, UniProt P27695) for this entry: O=C(O)[C@H](CCCCNc1ccc([N+](=O)[O-])cc1[N+](=O)[O-])Nc1ccc([N+](=O)[O-])cc1[N+](=O)[O-] ?
66.36

I'm curious: which Percent APE1 activity, average was measured for C/C(=N\Nc1ccc([N+](=O)[O-])cc1[N+](=O)[O-])c1ccc(-n2nncc2C(C)(C)C)cc1 tested on APE1 (Homo sapiens, UniProt P27695)?
103.1

====

# measured.on: L1 EN (LINE-1 retrotransposon endonuclease domain) (Homo sapiens, UniProt O00370, N5T)
# experiment.description: Fluorescent oligonucleotide EN nicking activity assay
# Assay type: biochemical
# settings: read-out: EN activity, percent of no inhibitor control
Entries and their measured remaining activity at 100 µM follow.
Numbers only; they are read as %.

Solved entries:
O=C(NCCCCCCNC(=O)Nc1cccc([N+](=O)[O-])c1)Nc1cccc([N+](=O)[O-])c1; 106
C/C(=N\Nc1ccc([N+](=O)[O-])cc1[N+](=O)[O-])c1ccc(-n2nncc2C(C)(C)C)cc1; 97.9
O=C1c2ccc(Oc3ccc4c(c3)C(=O)N(Nc3ccc([N+](=O)[O-])cc3[N+](=O)[O-])C4=O)cc2C(=O)N1Nc1ccc([N+](=O)[O-])cc1[N+](=O)[O-]; 0.968

Kindly consider the entry below.
Return reported remaining activity at 100 µM; argument: Cc1cc(=O)oc2c3c(ccc12)O/C(=N/Nc1ccc([N+](=O)[O-])cc1[N+](=O)[O-])C3=O
7.29

====

# measured.on: L1 EN (LINE-1 retrotransposon endonuclease domain) (Homo sapiens, UniProt O00370, N5T)
# experiment.description: Fluorescent oligonucleotide EN nicking activity assay
# Format: biochemical
# settings: [Inhibitor] 10 μM; technical replicates 1-3, Fig. 2b source data; read-out: EN activity, percent of no inhibitor control
Rule: remaining activity at 10 µM below 90% gives yes (1), anything at or above gives no (0).

Nn1cnn2c(SCC(=O)Cc3ccc(-c4nc5cc(NC(=O)CSc6nnc7n(N)cnn67)ccc5o4)cc3)nnc12; yes (1)

Take the molecule COc1ccc([N+](=O)[O-])cc1NC(=O)c1ccc2c(c1)N(Cc1cc(C)ccc1C)C(=O)c1ccccc1S2(=O)=O and say whether its remaining activity at 10 µM is less than 90%.
yes (1)

In plain terms, does O=C(O)C1CCC(Cn2c(=S)[nH]c3ccc(F)cc3c2=O)CC1 (stereo not drawn) come in under 90% for remaining activity at 10 µM?
no (0)

remaining activity at 10 µM strictly < 90% for this molecule? O=C(Nc1ccc(S(=O)(=O)NCc2ccco2)cc1)c1cc(NS(=O)(=O)c2cccs2)cc(NS(=O)(=O)c2cccs2)c1
no (0)

====

# measured.on: L1 EN (LINE-1 retrotransposon endonuclease domain) (Homo sapiens, UniProt O00370, N5T)
# experiment.description: Fluorescent oligonucleotide EN nicking activity assay
# Format: biochemical
# settings: [Inhibitor] 50 μM; technical replicates 1-3, Fig. 2b source data; read-out: EN activity, percent of no inhibitor control
Decision: remaining activity at 50 µM beneath 20% gives 1; remaining activity at 50 µM meeting or exceeding 20% gives -1.

Record excerpt, results attached:
O=C(Nc1ccc(S(=O)(=O)NCc2ccco2)cc1)c1cc(NS(=O)(=O)c2cccs2)cc(NS(=O)(=O)c2cccs2)c1; -1
Cc1ccc(NC(=O)CSc2nc(-c3ccccc3F)nc3c2Cc2c(CO)cnc(C)c2O3)cc1; -1

Given Cc1cc(O[C@H](C)C(=O)NC[C@H]2CC[C@H](C(=O)O)CC2)c2c3c(c(=O)oc2c1)CCC3 , is recorded remaining activity at 50 µM strictly lower than 20%?
-1

hey, is remaining activity at 50 µM for O=C(O)C1CCC(Cn2c(=S)[nH]c3ccc(F)cc3c2=O)CC1 (centres unmarked) lower than 20% or not?
-1

For COc1ccc([N+](=O)[O-])cc1NC(=O)c1ccc2c(c1)N(Cc1cc(C)ccc1C)C(=O)c1ccccc1S2(=O)=O , is the recorded remaining activity at 50 µM below the cut-off of 20%?
1

Is remaining activity at 50 µM of Nn1cnn2c(SCC(=O)Cc3ccc(-c4nc5cc(NC(=O)CSc6nnc7n(N)cnn67)ccc5o4)cc3)nnc12 strictly below 20%?
1

In the record for O=C(Cn1nc(-c2ccc(Br)cc2)ccc1=O)NC[C@H]1CC[C@H](C(=O)O)CC1 , is remaining activity at 50 µM less than 20%?
-1

Please indicate whether the reported remaining activity at 50 µM of Nn1cnn2c(SCC(=O)Nc3nnc(SCC(=O)Nc4ccc(S(N)(=O)=O)cc4)s3)nnc12 is strictly below 20%.
-1

====

# measured.on: APE1 (Homo sapiens, UniProt P27695)
# Construct: purchased New England Biolabs (NEB) M0282S
# experiment.description: APE1 fluorescent oligonucleotide activity assay (abasic site substrate)
# Type: biochemical
# settings: inhibitors at 25 μM; relative to 0 μM inhibitor control; mean ± s.d., 3 independent experiments; read-out: APE1 activity (%)
# activity at 25 µM listing for each entry below
Answer in %, number only, no unit symbol.

O=C(O)C1CCC(Cn2c(=S)[nH]c3ccc(F)cc3c2=O)CC1 (stereo not shown); 112

Field request: activity at 25 µM | item: COc1ccc(OC)c(NS(=O)(=O)c2ccc(NS(=O)(=O)c3cccc([N+](=O)[O-])c3)cc2)c1
118

Which measured activity at 25 µM value corresponds to O=C(Cn1nc(-c2ccc(Br)cc2)ccc1=O)NC[C@H]1CC[C@H](C(=O)O)CC1 ?
116

Item under review: Nn1cnn2c(SCC(=O)Nc3nnc(SCC(=O)Nc4ccc(S(N)(=O)=O)cc4)s3)nnc12 . Reported activity at 25 µM?
81.2

====

# measured.on: APE1 (Homo sapiens)
# Construct: purchased New England Biolabs (NEB) M0282S
# experiment.description: APE1 fluorescent oligonucleotide activity assay (abasic site substrate)
# Type: biochemical
# settings: compound at 25 μM; Replicate 1
APE1 percent activity, Replicate 1 reference
Form entry: value (%) — number only.

Some compounds with recorded APE1 percent activity, Replicate 1:
Cc1ccc(NC(=O)CSc2nc(-c3ccccc3F)nc3c2Cc2c(CO)cnc(C)c2O3)cc1; 117.021
COc1ccc(OC)c(NS(=O)(=O)c2ccc(NS(=O)(=O)c3cccc([N+](=O)[O-])c3)cc2)c1; 121.786
O=C(O)C1CCC(Cn2c(=S)[nH]c3ccc(F)cc3c2=O)CC1 (centres unmarked); 117.184
O=C(Nc1ccc(S(=O)(=O)NCc2ccco2)cc1)c1cc(NS(=O)(=O)c2cccs2)cc(NS(=O)(=O)c2cccs2)c1; 95.6087

What measured APE1 percent activity, Replicate 1 is associated with Nn1cnn2c(SCC(=O)Cc3ccc(-c4nc5cc(NC(=O)CSc6nnc7n(N)cnn67)ccc5o4)cc3)nnc12 on APE1 (Homo sapiens)?
93.7909

Return APE1 percent activity, Replicate 1 measured with APE1 (Homo sapiens) given this compound: Nn1cnn2c(SCC(=O)Nc3nnc(SCC(=O)Nc4ccc(S(N)(=O)=O)cc4)s3)nnc12
83.829

Provide value of APE1 percent activity, Replicate 1 for this record tested with APE1 (Homo sapiens): C[C@H]1C[C@H](C)CN(CCCNc2ccc(C(=O)Nc3ccc(C(F)(F)F)cc3)cc2[N+](=O)[O-])C1
119.501

// map COc1ccc([N+](=O)[O-])cc1NC(=O)c1ccc2c(c1)N(Cc1cc(C)ccc1C)C(=O)c1ccccc1S2(=O)=O to recorded APE1 percent activity, Replicate 1 (system: APE1 (Homo sapiens))
115.867
